Where these numbers come from: PubChem BioAssay AID2060503

test system: 817829-284-R-J1-PDC complex spheroids, viability; assay: Anticancer human tumor 817829-284-R-J1-PDC patient-derived colon adenocarcinoma cell line growth inhibition [GQUAD]; conditions: second compound 10 µM; first compound 0.0316 µM; stronger effect = lower value;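 note: spheroids exposed to agents for 7 days before readout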
viability, T/C strictly less than 20% = TRUE. Otherwise FALSE.

Solved entries (count: 6):
Is viability, T/C of Cc1cccc(N(C)C(=O)C2C(O)CCN2c2nc(C)cc(C(F)(F)F)c2C#N)c1 (stereo unspecified) + CN(C)c1ccc(Nc2c3ccc(NC(=O)CCN4CCCC4)cc3nc3cc(NC(=O)CCN4CCCC4)ccc23)cc1 strictly below 20%? FALSE

Is viability, T/C of CCCS(=O)(=O)Nc1ccc(F)c(C(=O)c2c[nH]c3ncc(-c4ccc(Cl)cc4)cc23)c1F + Cc1cnc(CNC(=O)c2c(=O)c3ccc(N4CCCN(C)CC4)nc3n3c2sc2ccccc23)cn1 strictly below 20%? TRUE

Is viability, T/C of CC1COCCN1c1cc(C2(S(C)(=N)=O)CC2)nc(-c2ccnc3[nH]ccc23)n1 (stereo unspecified) + Cc1cnc(CNC(=O)c2c(=O)c3ccc(N4CCCN(C)CC4)nc3n3c2sc2ccccc23)cn1 strictly below 20%? TRUE

Is viability, T/C of O=C(NO)c1cnc(N2CCN(S(=O)(=O)c3ccc4ccccc4c3)CC2)nc1 + Cc1[nH]c2ccc(F)cc2c1-c1nc2c3cccnc3c3ncccc3c2[nH]1 strictly below 20%? TRUE

Is viability, T/C of CC1COCCN1c1cc(C2(O)CC3CCC(C2)O3)c2cnn(-c3ccn[nH]3)c2n1 (stereo unspecified) + Cc1[nH]c2ccc(F)cc2c1-c1nc2c3cccnc3c3ncccc3c2[nH]1 strictly below 20%? TRUE

Is viability, T/C of O=c1[nH]cc(F)c(=O)[nH]1 + Cc1cnc(CNC(=O)c2c(=O)c3ccc(N4CCCN(C)CC4)nc3n3c2sc2ccccc23)cn1 strictly below 20%? TRUE

More entries:
Is viability, T/C of Cc1[nH]c2ccccc2c1CCNCc1ccc(/C=C/C(=O)NO)cc1 + CN(C)c1ccc(Nc2c3ccc(NC(=O)CCN4CCCC4)cc3nc3cc(NC(=O)CCN4CCCC4)ccc23)cc1 strictly below 20%? FALSE

Is viability, T/C of CC1COCCN1c1cc(-c2ccnn2C)c2ccnc(-c3ccn[nH]3)c2n1 (stereo unspecified) + CN(C)c1ccc(Nc2c3ccc(NC(=O)CCN4CCCC4)cc3nc3cc(NC(=O)CCN4CCCC4)ccc23)cc1 strictly below 20%? FALSE

Is viability, T/C of COc1cccc2c1C(=O)c1c(O)c3c(c(O)c1C2=O)CC(O)(C(=O)CO)CC3OC1CC(N)C(O)C(C)O1 (stereo unspecified) + Cc1[nH]c2ccc(F)cc2c1-c1nc2c3cccnc3c3ncccc3c2[nH]1 strictly below 20%? FALSE

Is viability, T/C of Cn1ncnc1[C@H]1c2n[nH]c(=O)c3cc(F)cc(c23)N[C@@H]1c1ccc(F)cc1 + CN(C)c1ccc(Nc2c3ccc(NC(=O)CCN4CCCC4)cc3nc3cc(NC(=O)CCN4CCCC4)ccc23)cc1 strictly below 20%? FALSE

Is viability, T/C of C=CCn1c(=O)c2cnc(Nc3ccc(N4CCN(C)CC4)cc3)nc2n1-c1cccc(C(C)(C)O)n1 + CN(C)c1ccc(Nc2c3ccc(NC(=O)CCN4CCCC4)cc3nc3cc(NC(=O)CCN4CCCC4)ccc23)cc1 strictly below 20%? FALSE
